These data points were gathered from paper PMC9911399.

Biological target: T1, RBFOX1 RRM (Homo sapiens, UniProt Q9NWB1 109-208)
T1 sequence: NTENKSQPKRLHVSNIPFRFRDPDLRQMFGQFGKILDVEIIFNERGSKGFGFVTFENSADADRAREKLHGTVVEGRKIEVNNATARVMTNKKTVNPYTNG
Assay: EMSA; HiTS-Eq, 1 nM pool, 10 min; buffer printed only for the single-RNA assays: 10 mM Tris pH 7.5, 150 mM NaCl, 3.4 mM EDTA, 0.001% NP-40, 30 C
Conditions: tags: His6 N-terminal (pET28a); label: 5' 32P
Whole data set: some 16,000 sequences, median “ka relative to ugcaugu” near 0.0091, cut for the highest 2% near 0.032. For the sample, the highest values were picked, then their nearest neighbours and some sequences at random.
Readout: binding signal

Some binders with known binding signal results, for comparison:
Dear colleague, I am looking for the recorded binding signal of the following binder: CUAUCGG (DNA:RNA) RNA: GGGAGACCGGAAUUCAGAUUGUCCCUAUCGGUUAAAUCCCGUCGUAGCCACCA DNA 1: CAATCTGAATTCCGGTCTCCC DNA 2: TGGTGGCTACGACGGGATT
0.00622 KA relative to UGCAUGU

Returns the measured binding signal for the input binder. Input: UAUUACU (DNA:RNA) RNA: GGGAGACCGGAAUUCAGAUUGUCCUAUUACUUUAAAUCCCGUCGUAGCCACCA DNA 1: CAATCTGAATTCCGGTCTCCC DNA 2: TGGTGGCTACGACGGGATT
0.00399 KA relative to UGCAUGU

Further cases:
Which binding signal value is on record for UGACUUG (DNA:RNA) RNA: GGGAGACCGGAAUUCAGAUUGUCCUGACUUGUUAAAUCCCGUCGUAGCCACCA DNA 1: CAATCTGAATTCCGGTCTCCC DNA 2: TGGTGGCTACGACGGGATT ?
0.0454 KA relative to UGCAUGU

Fill in the blank: the reported binding signal of UCCUGAC (DNA:RNA) RNA: GGGAGACCGGAAUUCAGAUUGUCCUCCUGACUUAAAUCCCGUCGUAGCCACCA DNA 1: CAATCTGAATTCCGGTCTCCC DNA 2: TGGTGGCTACGACGGGATT is ____.
0.0129 KA relative to UGCAUGU

Please report the recorded binding signal for GCCUGAA (DNA:RNA) RNA: GGGAGACCGGAAUUCAGAUUGUCCGCCUGAAUUAAAUCCCGUCGUAGCCACCA DNA 1: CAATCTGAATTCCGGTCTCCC DNA 2: TGGTGGCTACGACGGGATT .
0.0276 KA relative to UGCAUGU

I would be grateful if you could share the reported binding signal for UCCGUAG (DNA:RNA) RNA: GGGAGACCGGAAUUCAGAUUGUCCUCCGUAGUUAAAUCCCGUCGUAGCCACCA DNA 1: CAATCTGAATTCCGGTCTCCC DNA 2: TGGTGGCTACGACGGGATT .
0.00757 KA relative to UGCAUGU

What value of binding signal has been reported for the following binder? CUGACUG (DNA:RNA) RNA: GGGAGACCGGAAUUCAGAUUGUCCCUGACUGUUAAAUCCCGUCGUAGCCACCA DNA 1: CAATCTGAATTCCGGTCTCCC DNA 2: TGGTGGCTACGACGGGATT
0.0302 KA relative to UGCAUGU

Using the record for CUGAUGG (DNA:RNA) RNA: GGGAGACCGGAAUUCAGAUUGUCCCUGAUGGUUAAAUCCCGUCGUAGCCACCA DNA 1: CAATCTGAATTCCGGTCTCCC DNA 2: TGGTGGCTACGACGGGATT , report its binding signal.
0.0123 KA relative to UGCAUGU

What measured binding signal goes with UGACUGU (DNA:RNA) RNA: GGGAGACCGGAAUUCAGAUUGUCCUGACUGUUUAAAUCCCGUCGUAGCCACCA DNA 1: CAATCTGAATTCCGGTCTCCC DNA 2: TGGTGGCTACGACGGGATT ?
0.032 KA relative to UGCAUGU
